target: UniProt:Q06187; experiment: In Vitro BTK Kinase Assay: Btk-PolyGAT-LS Assay; format: biochemical; conditions: BTK enzyme 0.25 nM, ATP 10 μM, polyGAT 100 nM, 30 minutes incubation, TRF readout; read-out: IC50
property-name: IC50

Completed entries (count: 3):
Record "CC#CC(=O)N[C@H]1CC[C@@H](Oc2nc(-c3cnn(C)c3)cn3ncc(F)c23)C1" . Reported IC50: < 1 nM

The measured IC50 associated with "C=CC(=O)N1CCC[C@@H](Oc2nc(-c3cnn(C)c3)cn3ncc(C(F)(F)F)c23)CC1" reads 1 to 10 nM

For "C=CC(=O)N1CCC[C@H](COc2nc(-c3cnn(C)c3)cn3nccc23)C1" the molecule record lists IC50 as 1 to 10 nM

Look at each molecule and report its IC50.
1. C=CC(=O)N(C)[C@H]1C[C@](C)(Oc2nc(-c3cnn(C)c3)cn3nccc23)[C@@H]1C (single isomer, unassigned)
2. C=CC(=O)N(C)CC1(COc2nc(-c3cnn(C)c3)cn3nccc23)CC1
3. CC#CC(=O)N(C)[C@H]1CCC[C@@H](Oc2nc(-c3cnn(C)c3)cn3nccc23)C1
4. C=CC(=O)N1CCC[C@@H]2[C@H]1C[C@]2(C)Oc1nc(-c2cnn(C)c2)cn2nccc12 (single isomer, unassigned)

Response line:
["1 to 10 nM", "10 to 1000 nM", "< 1 nM", "10 to 1000 nM"]

* * *

system: CD69 expression on CD19+ B cells in human whole blood stimulated with anti-human IgD; assay: In Vitro whole blood CD69 Assay; assay type: cell-based; conditions: Homo sapiens, B-cell, human heparinized whole blood, anti-human IgD stimulation overnight, percentage of CD19+ B cells expressing CD69, flow cytometry; read-out: IC50
property-name: IC50

Below are worked cases with known answers.
// sample C=CC(=O)N(C)[C@@H]1C[C@@](C)(Oc2nc(-c3cnn(C)c3)cn3nccc23)[C@@H]1C (single isomer, unassigned) , its IC50 was < 1000 nM

Lab book: IC50 of C=CC(=O)N1CC2CC(C1)C2COc1nc(-c2cnn(C)c2)cn2nccc12 (stereo not drawn) noted as < 1000 nM

--- query ---
Reported IC50 for C=CC(=O)N1CCO[C@](C)(COc2nc(-c3cnn(C)c3)cn3nccc23)C1 (single isomer, unassigned) was < 1000 nM

* * *

Consider the following compounds; for each one, report its pIC50.
target: BTK (Homo sapiens (Human), UniProt Q06187); experiment: In Vitro BTK Kinase Assay: Btk-PolyGAT-LS Assay; format: biochemical; details: BTK enzyme 0.25 nM, ATP 10 μM, polyGAT 100 nM, 30 minutes incubation, TRF readout; read-out: IC50
Sequence (Q06187 whole entry): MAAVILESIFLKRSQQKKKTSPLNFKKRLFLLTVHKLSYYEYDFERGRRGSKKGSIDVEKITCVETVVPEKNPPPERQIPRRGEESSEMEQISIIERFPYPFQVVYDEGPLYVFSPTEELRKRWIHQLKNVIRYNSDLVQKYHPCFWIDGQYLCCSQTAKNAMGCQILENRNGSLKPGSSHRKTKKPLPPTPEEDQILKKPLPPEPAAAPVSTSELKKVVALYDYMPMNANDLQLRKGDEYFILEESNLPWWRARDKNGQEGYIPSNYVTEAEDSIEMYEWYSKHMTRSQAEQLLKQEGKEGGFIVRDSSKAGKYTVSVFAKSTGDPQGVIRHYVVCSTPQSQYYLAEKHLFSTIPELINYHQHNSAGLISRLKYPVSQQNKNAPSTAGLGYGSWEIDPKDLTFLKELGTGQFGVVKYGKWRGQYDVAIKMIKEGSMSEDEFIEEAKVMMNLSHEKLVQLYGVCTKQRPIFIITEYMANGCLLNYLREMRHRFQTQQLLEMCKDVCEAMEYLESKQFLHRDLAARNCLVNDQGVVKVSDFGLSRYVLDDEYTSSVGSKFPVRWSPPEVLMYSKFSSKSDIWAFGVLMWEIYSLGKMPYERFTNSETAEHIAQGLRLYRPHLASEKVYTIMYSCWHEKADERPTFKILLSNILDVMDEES
pIC50: −log10 of the molar value.

Example compounds with recorded pIC50:
Reported pIC50 ( "C=CC(=O)N1C[C@H]2C[C@@H](Oc3nc(-c4cnn(C)c4)cn4ncc(C)c34)[C@H]2C1" ) = > 9.00

What the record says about C=CC(=O)N1CCO[C@](C)(COc2nc(-c3cnn(C)c3)cn3nccc23)C1 (single isomer, unassigned) : pIC50 is 8.00 to 9.00

Entry under test: C=CC(=O)N1CC[C@]2(CC[C@H](Oc3nc(-c4cnn(C)c4)cn4nccc34)C2)C1 (single isomer, unassigned) . Its pIC50 was 6.00 to 8.00

Here is the next item to consider.
pIC50 recorded for this compound, C=CC(=O)N1CCC(COc2nc(-c3cnn(C)c3)cc3nccn23)C1 (stereo not shown) , is 6.00 to 8.00
